system: N-Myc-Max transcription activity (LNCaP-NMYC cells); experiment: Myc transcription assay (Cignal Myc reporter, luciferase) in LNCaP-NMYC cells; type: cell-based; conditions: LNCaP-NMYC, 5 µM
readout-label: transcription inhibition activity at 5 µM (in words)

{"compound": "COc1cc(C(=O)NNc2ccc(C#N)cc2C(F)(F)F)ccc1Cl [compound 70685]", "data-value": "recovered the activity"}
{"compound": "N#Cc1ccc(NNC(=O)c2ccc(Cl)c(C#N)c2)c(C(F)(F)F)c1 [compound 70662]", "data-value": "recovered the activity"}

###

system: N-Myc-Max transcription activity (LNCaP-NMYC cells); test: Myc transcription assay (Cignal Myc reporter, luciferase) in LNCaP-NMYC cells; type: cell-based; settings: 24 h; 10 µM; LNCaP-NMYC; read-out: % Transcript Inhibition (10 µM)
readout-label: inhibition at 10 µM (%)

{"chemical-smiles": "O=C(NNc1ccccc1F)c1ccc(C(F)(F)F)cc1", "readout-label": "inhibition at 10 µM", "data-value": 24}
{"chemical-smiles": "O=C(NNc1ccc(C(F)(F)F)cc1)c1ccc(C(F)(F)F)cc1", "readout-label": "inhibition at 10 µM", "data-value": 28}
{"chemical-smiles": "CC(F)(F)c1ccc(C(=O)NNc2ccc(C#N)cc2)cc1", "readout-label": "inhibition at 10 µM", "data-value": -8}
{"chemical-smiles": "CC(C)(C#N)c1ccc(C(=O)NNc2ccc(C#N)cc2C(F)(F)F)cc1", "readout-label": "inhibition at 10 µM", "data-value": 10}
{"chemical-smiles": "N#Cc1ccc(NNC(=O)c2ccc(C(F)(F)F)cc2)cc1", "readout-label": "inhibition at 10 µM", "data-value": 34}
{"chemical-smiles": "C#Cc1ccc(C(=O)NNc2ccc(C#N)cc2C(F)(F)F)cc1", "readout-label": "inhibition at 10 µM", "data-value": 84}
{"chemical-smiles": "N#Cc1ccc(NNC(=O)c2ccc(Cl)cc2)c(C(F)(F)F)c1", "readout-label": "inhibition at 10 µM", "data-value": 78}
{"chemical-smiles": "C=Cc1ccc(C(=O)NNc2ccc(C#N)cc2C(F)(F)F)cc1", "readout-label": "inhibition at 10 µM", "data-value": 62}
{"chemical-smiles": "N#Cc1ccc(NNC(=O)c2ccc(Br)cc2)c(C(F)(F)F)c1", "readout-label": "inhibition at 10 µM", "data-value": 48}

###

assay: Pharmacokinetics after IP and PO dosing; format: in vivo, male Balb/c mice; conditions: male, Balb/c, mouse, plasma; PO, 10 mg/kg; 70551 in 75:25 PG/PEG 400, 70619 in 20:80 Kolliphor EL; read-out: Cmax PO
List of Cmax values.
readout-label: Cmax (ng/mL)

{"chemical-smiles": "N#Cc1ccc(NNC(=O)c2ccc(C#N)c(Cl)c2)c(C(F)(F)F)c1", "units-of-measure": "ng/mL", "data-value": 24000}
{"chemical-smiles": "N#Cc1ccc(NNC(=O)c2ccc(C(F)(F)F)cc2)c(C(F)(F)F)c1", "units-of-measure": "ng/mL", "data-value": 2600}

###

system: N-Myc-Max transcription activity (LNCaP-NMYC cells); test: Myc transcription assay (Cignal Myc reporter, luciferase) in LNCaP-NMYC cells; assay type: cell-based; parameters: unit not given here; conditions: 10 uM; sheet 181_set
Please enter MET where 10 uM corrected is greater than or equal to 6, and NOT MET where it is lower.

{"compound": "N#Cc1ccc(NNC(=O)c2cc(F)c(F)cc2F)c(C(F)(F)F)c1 [compound 70772]", "answer-label": "MET"}
{"compound": "N#Cc1ccc(NNC(=O)c2ccccc2F)c(C(F)(F)F)c1 [compound 70709]", "answer-label": "NOT MET"}
{"compound": "Cc1ccc(C(=O)NNc2ccc(C#N)cc2C(F)(F)F)cc1Cl [compound 70628]", "answer-label": "MET"}
{"compound": "N#Cc1ccc(NNC(=O)c2ccccc2I)c(C(F)(F)F)c1 [compound 70702]", "answer-label": "MET"}
{"compound": "N#Cc1ccc(NNC(=O)c2ccc(C#N)c(O)c2)c(C(F)(F)F)c1 [compound 70673]", "answer-label": "NOT MET"}
{"compound": "Cc1cc(C)cc(C(=O)NNc2ccc(C#N)cc2C(F)(F)F)c1 [compound 70651]", "answer-label": "NOT MET"}
{"compound": "Cc1cc(C(=O)NNc2ccc(C#N)cc2C(F)(F)F)ccc1Cl [compound 70617]", "answer-label": "MET"}
{"compound": "Cc1ccc(C(=O)NNc2ccc(C#N)cc2C(F)(F)F)cc1F [compound 70765]", "answer-label": "MET"}
{"compound": "N#Cc1ccc(NNC(=O)c2ccc(Cl)cc2Cl)c(C(F)(F)F)c1 [compound 70624]", "answer-label": "MET"}
{"compound": "CS(=O)(=O)c1cc(C(=O)NNc2ccc(C#N)cc2C(F)(F)F)ccc1Cl [compound 70721]", "answer-label": "NOT MET"}
{"compound": "N#Cc1ccc(NNC(=O)c2cccc(Br)c2)c(C(F)(F)F)c1 [compound 70754]", "answer-label": "MET"}
